tested.target: T1, platelet-derived growth factor β-receptor (PDGFR-β)
T1 chain: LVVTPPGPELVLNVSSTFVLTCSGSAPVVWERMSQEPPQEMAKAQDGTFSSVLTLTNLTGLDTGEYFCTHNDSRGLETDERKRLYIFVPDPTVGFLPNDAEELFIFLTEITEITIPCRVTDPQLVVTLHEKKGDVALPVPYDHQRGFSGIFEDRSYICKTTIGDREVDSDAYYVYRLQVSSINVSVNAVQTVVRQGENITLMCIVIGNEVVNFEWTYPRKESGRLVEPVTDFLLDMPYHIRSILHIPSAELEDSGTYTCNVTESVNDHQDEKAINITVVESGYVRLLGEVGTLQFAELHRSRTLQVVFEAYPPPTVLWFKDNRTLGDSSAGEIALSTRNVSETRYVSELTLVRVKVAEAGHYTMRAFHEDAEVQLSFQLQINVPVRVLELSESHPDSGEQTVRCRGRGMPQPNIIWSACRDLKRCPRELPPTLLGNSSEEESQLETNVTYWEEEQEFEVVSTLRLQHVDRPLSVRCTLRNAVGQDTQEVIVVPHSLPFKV
assay.method.text: solid-phase competition, displacement of 125I-PDGF-BB from plate-immobilised PDGFR-β
Non-standard residues stand in square brackets, D forms with d.
experimental.readout: IC50 (µM)
Answers are plain numbers, in µM.

# count of solved cases: 4
cyclo(PAYVRKKYA[dP]) (SMILES CC(C)[C@@H]1NC(=O)[C@H](Cc2ccc(O)cc2)NC(=O)[C@H](C)NC(=O)[C@@H]2CCCN2C(=O)[C@H]2CCCN2C(=O)[C@H](C)NC(=O)[C@H](Cc2ccc(O)cc2)NC(=O)[C@H](CCCCN)NC(=O)[C@H](CCCCN)NC(=O)[C@H](CCCNC(=N)N)NC1=O, also called ^LP-A-Y-V-R / ^DP-A-Y-K-K) [target cyclic peptide 20]; 2000
cyclo(PEYVRKKYI[dP]) (SMILES CC[C@H](C)[C@@H]1NC(=O)[C@H](Cc2ccc(O)cc2)NC(=O)[C@H](CCCCN)NC(=O)[C@H](CCCCN)NC(=O)[C@H](CCCNC(=N)N)NC(=O)[C@H](C(C)C)NC(=O)[C@H](Cc2ccc(O)cc2)NC(=O)[C@H](CCC(=O)O)NC(=O)[C@@H]2CCCN2C(=O)[C@H]2CCCN2C1=O, also called compound 2) [target cyclic peptide 2]; 2000
cyclo(PWIVRKKPW[dP]) (SMILES CC[C@H](C)[C@@H]1NC(=O)[C@H](Cc2c[nH]c3ccccc23)NC(=O)[C@@H]2CCCN2C(=O)[C@H]2CCCN2C(=O)[C@H](Cc2c[nH]c3ccccc23)NC(=O)[C@@H]2CCCN2C(=O)[C@H](CCCCN)NC(=O)[C@H](CCCCN)NC(=O)[C@H](CCCNC(=N)N)NC(=O)[C@H](C(C)C)NC1=O, also called ^LP-W-I-V-R / ^DP-W-P-K-K) [target cyclic peptide 13]; 260
cyclo(PEWVRKKWI[dP]) (SMILES CC[C@H](C)[C@@H]1NC(=O)[C@H](Cc2c[nH]c3ccccc23)NC(=O)[C@H](CCCCN)NC(=O)[C@H](CCCCN)NC(=O)[C@H](CCCNC(=N)N)NC(=O)[C@H](C(C)C)NC(=O)[C@H](Cc2c[nH]c3ccccc23)NC(=O)[C@H](CCC(=O)O)NC(=O)[C@@H]2CCCN2C(=O)[C@H]2CCCN2C1=O, also called compound 3) [target cyclic peptide 3]; 1500

Next, consider the following binder.
For record cyclo(PWKVRKKKW[dP]) (SMILES CC(C)[C@@H]1NC(=O)[C@H](CCCCN)NC(=O)[C@H](Cc2c[nH]c3ccccc23)NC(=O)[C@@H]2CCCN2C(=O)[C@H]2CCCN2C(=O)[C@H](Cc2c[nH]c3ccccc23)NC(=O)[C@H](CCCCN)NC(=O)[C@H](CCCCN)NC(=O)[C@H](CCCCN)NC(=O)[C@H](CCCNC(=N)N)NC1=O, also called ^LP-W-K-V-R / ^DP-W-K-K-K) [target cyclic peptide 18] the listed IC50 is 500
